Counter-ions that a name gives are not always drawn.
Measured attribute: pKi
The scale used: pKi is minus the common logarithm of the concentration in molar units.

Item `Cc1nc2sccn2c(=O)c1CCN1CCC(=C(c2ccc(F)cc2)c2ccc(F)cc2)CC1` ; assay system 5-hydroxytryptamine receptor 1E (Homo sapiens, UniProt P28566); pKi reported as 6.25

Known value: 5-hydroxytryptamine receptor 1E (Homo sapiens, UniProt P28566) pKi of the molecule Cc1ccc2c(c1)c1c(n2CCc2ccc(C)nc2)CCN(C)C1 [LATREPIRDINE] equals 5.25

Here CN1C[C@H](C(=O)N[C@]2(C)O[C@@]3(O)[C@@H]4CCCN4C(=O)[C@H](Cc4ccccc4)N3C2=O)C[C@@H]2c3cccc4[nH]cc(c34)C[C@H]21 [DIHYDROERGOTAMINE MESYLATE] was tested on 5-hydroxytryptamine receptor 1E (Homo sapiens, UniProt P28566), and its pKi came to 6.17

For `Cc1cc(C)cc(-c2cnc3cc(Cl)c(-c4cccc(O)c4)cc3c2OCCCN)c1` on 5-hydroxytryptamine receptor 1E (Homo sapiens, UniProt P28566), measured pKi was 5.24
